Reported pIC50 values are given for each entry in this list.
- Measured On: NA enzymatic activity of A/Georgia/17/2006 WT (Influenza A virus (H1N1))
- Experiment Description: Chemiluminescent neuraminidase activity inhibition (NI) assay
- Condition Summary: A/Georgia/17/2006 WT reference virus; mean of triplicate analysis
Convention used: pIC50 is expressed as -log10 of the molar concentration.

Compound	pIC50
CCC(CC)O[C@@H]1C=C(C(=O)O)C[C@H](N)[C@H]1NC(C)=O [oseltamivir, oseltamivir carboxylate]	9.43

We next turn to a different compound, shown below.
Specify measured pIC50 for CC(=O)N[C@H]1[C@H]([C@H](O)[C@H](O)CO)OC(C(=O)O)=C[C@@H]1N=C(N)N . 9.36

====

- Measured On: NA enzymatic activity of A/St.Louis/690/09 (Influenza A virus, UniProt D0FH49)
- Experiment Description: Chemiluminescent neuraminidase activity inhibition (NI) assay
- Condition Summary: mean of triplicate analysis
Observed Property: pIC50
Convention used: pIC50 is expressed as -log10 of the molar concentration.

Compound	pIC50
CCC(CC)O[C@@H]1C=C(C(=O)O)C[C@H](N)[C@H]1NC(C)=O [oseltamivir, oseltamivir carboxylate]	6.75

We next turn to a different compound, shown below.
Specify measured pIC50 for CC(=O)N[C@H]1[C@H]([C@H](O)[C@H](O)CO)OC(C(=O)O)=C[C@@H]1N=C(N)N . 9.36

====

- Measured On: NA enzymatic activity of A/St.Louis/764/09 (Influenza A virus)
- Experiment Description: Chemiluminescent neuraminidase activity inhibition (NI) assay
- Assay type: biochemical, IFV A (H1N1)
- Condition Summary: mean of triplicate analysis
Observed Property: pIC50
Convention used: pIC50 is expressed as -log10 of the molar concentration.

Molecule	pIC50
CCC(CC)O[C@@H]1C=C(C(=O)O)C[C@H](N)[C@H]1NC(C)=O [oseltamivir, oseltamivir carboxylate]	6.99

We next turn to a different molecule, shown below.
Specify measured pIC50 for CC(=O)N[C@H]1[C@H]([C@H](O)[C@H](O)CO)OC(C(=O)O)=C[C@@H]1N=C(N)N . 9.52

====

- Tested on: A/St.Louis/764/09
- Type: cell-based, IFV A (H1N1)
- Condition Summary: read-out: EC50
Reported EC50 values are given for each entry in this list.

Compound	EC50
CCC(CC)O[C@@H]1C=C(C(=O)O)C[C@H](N)[C@H]1NC(C)=O [oseltamivir, oseltamivir carboxylate]	> 400 µM

Specify measured EC50 for CC(=O)N[C@H]1[C@H]([C@H](O)[C@H](O)CO)OC(C(=O)O)=C[C@@H]1N=C(N)N [zanamivir] . > 273 µM

====

- Tested on: A/St.Louis/775/09
- Type: cell-based, IFV A (H1N1)
- Condition Summary: read-out: EC50
Observed Property: pEC50
Convention used: pEC50 is expressed as -log10 of the molar concentration.

Specify measured pEC50 for CC(=O)N[C@H]1[C@H]([C@H](O)[C@H](O)CO)OC(C(=O)O)=C[C@@H]1N=C(N)N [zanamivir] . 5.92

====

- System: A/St.Louis/792/09
- Format: cell-based, IFV A (H1N1)
- Condition Summary: read-out: EC50
pEC50: −log10 of the molar value.
Observed Property: pEC50

Compound	Observed Property	Reported Measurement
CCC(CC)O[C@@H]1C=C(C(=O)O)C[C@H](N)[C@H]1NC(C)=O [oseltamivir, oseltamivir carboxylate]	pEC50	< 3.40

Specify measured pEC50 for CC(=O)N[C@H]1[C@H]([C@H](O)[C@H](O)CO)OC(C(=O)O)=C[C@@H]1N=C(N)N . < 3.81

====

- Measured On: NA enzymatic activity of A/St.Louis/746/09 (Influenza A virus)
- Experiment Description: Chemiluminescent neuraminidase activity inhibition (NI) assay
- Condition Summary: mean of triplicate analysis
Observed Property: IC50 (nM)
Supply the numeric figure in nM, leaving out any unit text.

Compound	Unit Spec	Reported Measurement
CC(=O)N[C@H]1[C@H]([C@H](O)[C@H](O)CO)OC(C(=O)O)=C[C@@H]1N=C(N)N	nM	0.3

We next turn to a different compound, shown below.
Specify measured IC50 for CCC(CC)O[C@@H]1C=C(C(=O)O)C[C@H](N)[C@H]1NC(C)=O [oseltamivir, oseltamivir carboxylate] . 89.9

====

Reported IC50 values are given for each entry in this list.
- Measured On: NA enzymatic activity of A/St.Louis/790/09 (Influenza A virus)
- Experiment Description: Chemiluminescent neuraminidase activity inhibition (NI) assay
- Condition Summary: mean of triplicate analysis
- Method: The chemiluminescent neuraminidase activity inhibition (NI) assay was conducted using a commercially available kit, NA-Star (Applied Biosystems, Foster City, CA) as previously described. Oseltamivir carboxylate and zanamivir were used at 10 half-log dilutions (0.03 to 1000 nM). Values shown represent mean of triplicate analysis.
Supply the numeric figure in µM, leaving out any unit text.

Specify measured IC50 for CCC(CC)O[C@@H]1C=C(C(=O)O)C[C@H](N)[C@H]1NC(C)=O [oseltamivir, oseltamivir carboxylate] . 0.0878

Specify measured IC50 for CC(=O)N[C@H]1[C@H]([C@H](O)[C@H](O)CO)OC(C(=O)O)=C[C@@H]1N=C(N)N . 0.00029

====

Reported pIC50 values are given for each entry in this list.
- Measured On: NA enzymatic activity of A/St.Louis/630/09 (Influenza A virus, UniProt D0FH48)
- Experiment Description: Chemiluminescent neuraminidase activity inhibition (NI) assay
- Condition Summary: mean of triplicate analysis
Convention used: pIC50 is expressed as -log10 of the molar concentration.

Molecule	pIC50
CCC(CC)O[C@@H]1C=C(C(=O)O)C[C@H](N)[C@H]1NC(C)=O [oseltamivir, oseltamivir carboxylate]	6.65

We next turn to a different molecule, shown below.
Identify measured pIC50 obtained with NA enzymatic activity of A/St.Louis/630/09 (Influenza A virus, UniProt D0FH48) for CC(=O)N[C@H]1[C@H]([C@H](O)[C@H](O)CO)OC(C(=O)O)=C[C@@H]1N=C(N)N . 9.32

====

- Measured On: NA enzymatic activity of A/Hawaii/21/2007 (Influenza A virus (H1N1))
- Experiment Description: Chemiluminescent neuraminidase activity inhibition (NI) assay
- Condition Summary: A/Hawaii/21/2007 reference virus; mean of triplicate analysis
Observed Property: pIC50
Convention used: pIC50 is expressed as -log10 of the molar concentration.

Specify measured pIC50 for CCC(CC)O[C@@H]1C=C(C(=O)O)C[C@H](N)[C@H]1NC(C)=O [oseltamivir, oseltamivir carboxylate] . 6.96

====

- System: A/St.Louis/746/09
- Assay type: cell-based, IFV A (H1N1)
- Condition Summary: read-out: EC50
Observed Property: pEC50
Convention used: pEC50 is expressed as -log10 of the molar concentration.

Specify measured pEC50 for CC(=O)N[C@H]1[C@H]([C@H](O)[C@H](O)CO)OC(C(=O)O)=C[C@@H]1N=C(N)N . 5.71

====

- Test system: A/HongKong/2637/04
- Type: cell-based, IFV A (H1N1)
- Condition Summary: read-out: EC50 Zanamivir
Observed Property: EC50 (µM)
Supply the numeric figure in µM, leaving out any unit text.

Specify measured EC50 for CC(=O)N[C@H]1[C@H]([C@H](O)[C@H](O)CO)OC(C(=O)O)=C[C@@H]1N=C(N)N . 1.82

====

- Test system: A/St.Louis/630/09
- Format: cell-based, IFV A (H1N1)
- Condition Summary: read-out: EC50 Zanamivir
Observed Property: pEC50
Convention used: pEC50 is expressed as -log10 of the molar concentration.

Specify measured pEC50 for CC(=O)N[C@H]1[C@H]([C@H](O)[C@H](O)CO)OC(C(=O)O)=C[C@@H]1N=C(N)N . 4.21

====

Reported IC50 values are given for each entry in this list.
- Measured On: NA enzymatic activity of A/St.Louis/792/09 (Influenza A virus)
- Experiment Description: Chemiluminescent neuraminidase activity inhibition (NI) assay
- Condition Summary: mean of triplicate analysis
Supply the numeric figure in µM, leaving out any unit text.

Molecule	Unit Spec	Reported Measurement
CCC(CC)O[C@@H]1C=C(C(=O)O)C[C@H](N)[C@H]1NC(C)=O [oseltamivir, oseltamivir carboxylate]	µM	0.0915

We next turn to a different molecule, shown below.
Specify measured IC50 for CC(=O)N[C@H]1[C@H]([C@H](O)[C@H](O)CO)OC(C(=O)O)=C[C@@H]1N=C(N)N . 0.00028
